# Target Or Test System: KRAS G12V (Homo sapiens, UniProt P01116, G12V)
# Sequence (P01116 1-188 isoform P01116-2 G12V): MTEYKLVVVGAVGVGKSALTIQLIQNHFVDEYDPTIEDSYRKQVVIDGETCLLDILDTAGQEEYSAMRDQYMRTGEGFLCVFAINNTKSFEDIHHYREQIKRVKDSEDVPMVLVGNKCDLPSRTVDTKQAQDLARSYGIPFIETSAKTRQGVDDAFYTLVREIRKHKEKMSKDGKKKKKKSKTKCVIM
# Assay Procedure: GDP-GTP exchange assay, KRAS G12V (bodipy-GDP/GppNHp, SOS1)
# Study Conditions: bodipy-loaded KRAS G12V 2.5 nM, 3 hours pre-incubation with inhibitor, SOS1 150 nM, GppNHp 500 uM; read-out: G12V_exchange (KRAS_G12V exchange assay IC50)
pIC50: −log10 of the molar value.
Parameter: pIC50. Scope: all listed entries.
Recorded Endpoint: pIC50

compound="C[C@@H](CN(C)C)Oc1nc2c(F)c(-c3cc(O)cc4ccccc34)c(CCC#N)cc2c2c1NC(=O)CN2C1C2CNC1C2 (single isomer, unassigned) [Example 11b]" recorded_endpoint=pIC50 obs_value="5.00 to 5.30"
compound="CN(C)C1CN(c2nc3c(F)c(-c4cc(O)cc5ccccc45)c(CCC#N)cc3c3c2NC(=O)CN3C2C3CNC2C3)C1 (single isomer, unassigned) [Example 13b]" recorded_endpoint=pIC50 obs_value="6.00 to 7.00"
compound="CC1Cc2c(OC[C@@H]3CCCN3C)nc3c(F)c(-c4cc(O)cc5ccccc45)c(CCC#N)cc3c2N(C2C3CNC2C3)C1 (single isomer, unassigned) [Example 14a]" recorded_endpoint=pIC50 obs_value="≥ 7.00"
compound="CNC(=O)c1cccc(-c2nc3c(F)c(-c4cc(O)cc5ccccc45)c(CCC#N)cc3c3c2NC(=O)CN3C2C3CNC2C3)c1 (single isomer, unassigned) [Example 9a]" recorded_endpoint=pIC50 obs_value="≥ 7.00"
compound="CN1CCC[C@H]1COc1nc2c(F)c(-c3cc(O)cc4ccccc34)c(CCC#N)cc2c2c1CCCN2C1C2CNC1C2 (single isomer, unassigned) [Example 12a]" recorded_endpoint=pIC50 obs_value="5.00 to 5.30"
compound="C[C@H](Oc1nc2c(F)c(-c3cc(O)cc4ccc(F)cc34)c(CCC#N)cc2c2c1NC(=O)CN2C1C2CNC1C2)[C@@H]1CCCN1C (single isomer, unassigned) [Example 4a]" recorded_endpoint=pIC50 obs_value="5.30 to 6.00"
compound="C[C@H](Oc1nc2c(F)c(-c3cccc(Cl)c3Cl)c(CCC#N)cc2c2c1NC(=O)CN2C1C2CNC1C2)[C@@H]1CCCN1C (single isomer, unassigned) [Example 2a]" recorded_endpoint=pIC50 obs_value="6.00 to 7.00"
compound="C[C@H](Oc1nc2c(F)c(-c3c[nH]c4ccccc34)c(CCC#N)cc2c2c1NC(=O)CN2C1C2CNC1C2)[C@@H]1CCCN1C (single isomer, unassigned) [Example 1b]" recorded_endpoint=pIC50 obs_value="6.00 to 7.00"
compound="N#CCCc1cc2c3c(c(-c4ccc5cccnc5c4)nc2c(F)c1-c1cc(O)cc2ccccc12)NC(=O)CN3C1C2CNC1C2 (single isomer, unassigned) [Example 6a]" recorded_endpoint=pIC50 obs_value="≥ 7.00"
compound="C[C@H](Oc1nc2c(F)c(-c3cccc(Cl)c3Cl)c(CCC#N)cc2c2c1NC(=O)CN2C1C2CNC1C2)[C@@H]1CCCN1C (single isomer, unassigned) [Example 2b]" recorded_endpoint=pIC50 obs_value="≥ 7.00"
compound="CC1Cc2c(OC[C@@H]3CCCN3C)nc3c(F)c(-c4cc(O)cc5ccccc45)c(CCC#N)cc3c2N(C2C3CNC2C3)C1 (single isomer, unassigned) [Example 14c]" recorded_endpoint=pIC50 obs_value="5.00 to 5.30"
compound="Cc1cc2c(nc(O[C@@H](C)[C@@H]3CCCN3C)c3c(=O)ccn([C@H]4[C@H]5CN[C@@H]4C5)c32)c(F)c1-c1cccc2c1C(C#N)CCC2 (some centres unmarked) [Example 23]" recorded_endpoint=pIC50 obs_value="≥ 7.00"
compound="C[C@H](Oc1nc2c(F)c(-c3c[nH]c4ccccc34)c(CCC#N)cc2c2c1NC(=O)CN2C1C2CNC1C2)[C@@H]1CCCN1C (single isomer, unassigned) [Example 1a]" recorded_endpoint=pIC50 obs_value="≥ 7.00"
compound="Cc1cc2c(nc(O[C@@H](C)[C@@H]3CCCN3C)c3c(=O)c(Nc4cnn(C)c4)cn([C@H]4[C@H]5CN[C@@H]4C5)c32)c(F)c1-c1cccc2c1C(C#N)CCC2 (single isomer, unassigned) [Example 26a]" recorded_endpoint=pIC50 obs_value="≥ 7.00"

---

# Target Or Test System: KRAS G12D (Homo sapiens, UniProt P01116, G12D)
# Sequence (P01116 1-188 isoform P01116-2 G12D): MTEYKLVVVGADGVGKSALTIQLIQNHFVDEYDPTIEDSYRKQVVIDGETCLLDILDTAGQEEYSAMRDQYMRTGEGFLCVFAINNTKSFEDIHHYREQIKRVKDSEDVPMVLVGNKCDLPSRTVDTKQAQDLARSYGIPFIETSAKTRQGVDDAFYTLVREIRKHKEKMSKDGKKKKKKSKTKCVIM
# Assay Procedure: GDP-GTP exchange assay, KRAS G12D (bodipy-GDP/GppNHp, SOS1)
# Format: biochemical
# Study Conditions: bodipy-loaded KRAS G12D 2.5 nM, 4 hours pre-incubation with inhibitor, SOS1 150 nM, GppNHp 500 uM; read-out: G12D_exchange (KRAS_G12D exchange assay IC50)
pIC50: −log10 of the molar value.
Recorded Endpoint: pIC50

compound="C[C@H](Oc1nc2c(F)c(-c3c[nH]c4ccccc34)c(CCC#N)cc2c2c1NC(=O)CN2C1C2CNC1C2)[C@@H]1CCCN1C (single isomer, unassigned) [Example 1b]" target_or_test_system="KRAS G12D (Homo sapiens, UniProt P01116, G12D)" obs_value="6.00 to 7.00"
compound="C[C@H](Oc1nc2c(F)c(-c3cccc(Cl)c3Cl)c(CCC#N)cc2c2c1NC(=O)CN2C1C2CNC1C2)[C@@H]1CCCN1C (single isomer, unassigned) [Example 2a]" target_or_test_system="KRAS G12D (Homo sapiens, UniProt P01116, G12D)" obs_value="6.00 to 7.00"
compound="C[C@@H](CN(C)C)Oc1nc2c(F)c(-c3cc(O)cc4ccccc34)c(CCC#N)cc2c2c1NC(=O)CN2C1C2CNC1C2 (single isomer, unassigned) [Example 11a]" target_or_test_system="KRAS G12D (Homo sapiens, UniProt P01116, G12D)" obs_value="5.00 to 5.30"
compound="N#CCCc1cc2c3c(c(OC[C@@]45CCCN4C[C@H](F)C5)nc2c(F)c1-c1cc(O)cc2ccccc12)NC(=O)CN3C1C2CNC1C2 (single isomer, unassigned) [Example 10d]" target_or_test_system="KRAS G12D (Homo sapiens, UniProt P01116, G12D)" obs_value="5.30 to 6.00"
compound="C[C@H](Oc1nc2c(F)c(-c3cccc(Cl)c3Cl)c(CCC#N)cc2c2c1c(=O)c(-c1cnn(C)c1)cn2[C@H]1[C@H]2CN[C@@H]1C2)[C@@H]1CCCN1C (single isomer, unassigned) [Example 24b]" target_or_test_system="KRAS G12D (Homo sapiens, UniProt P01116, G12D)" obs_value="≥ 7.00"
compound="C[C@H](Oc1nc2c(F)c(-c3cc(O)cc4ccccc34)c(CCC#N)cc2c2c1CCCN2C1C2CNC1C2)[C@@H]1CCCN1C (single isomer, unassigned) [Example 15b]" target_or_test_system="KRAS G12D (Homo sapiens, UniProt P01116, G12D)" obs_value="≥ 7.00"
compound="Cc1cc2c(nc(O[C@@H](C)[C@@H]3CCCN3C)c3c(=O)c(Nc4cnn(C)c4)cn([C@H]4[C@H]5CN[C@@H]4C5)c32)c(F)c1-c1cccc2c1C(C#N)CCC2 (single isomer, unassigned) [Example 26a]" target_or_test_system="KRAS G12D (Homo sapiens, UniProt P01116, G12D)" obs_value="≥ 7.00"
compound="C[C@H](Oc1nc2c(F)c(-c3cc(O)cc4ccc(F)cc34)c(CCC#N)cc2c2c1NC(=O)CN2C1C2CNC1C2)[C@@H]1CCCN1C (single isomer, unassigned) [Example 4d]" target_or_test_system="KRAS G12D (Homo sapiens, UniProt P01116, G12D)" obs_value="≥ 7.00"
compound="C[C@H](Oc1nc2c(F)c(-c3cc(O)cc4ccc(F)cc34)c(CCC#N)cc2c2c1NC(=O)CN2C1C2CNC1C2)[C@@H]1CCCN1C (single isomer, unassigned) [Example 4b]" target_or_test_system="KRAS G12D (Homo sapiens, UniProt P01116, G12D)" obs_value="6.00 to 7.00"
compound="Cc1cc2c(nc(O[C@@H](C)[C@@H]3CCCN3C)c3c(=O)c(Nc4cnn(C)c4)cn([C@H]4[C@H]5CN[C@@H]4C5)c32)c(F)c1-c1cccc2c1C(C#N)CCC2 (single isomer, unassigned) [Example 26b]" target_or_test_system="KRAS G12D (Homo sapiens, UniProt P01116, G12D)" obs_value="≥ 7.00"

---

Parameter: IC50. Scope: all listed entries.
# Target Or Test System: KRAS G12D (Homo sapiens, UniProt P01116, G12D)
# Assay Procedure: KRAS_G12D pERK assay (cellular pERK HTRF assay)
# Type: cell-based
# Set-up: host or cells: A427 or HPAF-II
# Study Conditions: KRAS G12D cells (A427, HPAF-II named in method), 2 hours incubation, Phospho-ERK 1/2 HTRF; read-out: G12D_PERK (KRAS_G12D pERK assay IC50)
Recorded Endpoint: IC50

compound="C[C@@H](CN(C)C)Oc1nc2c(F)c(-c3cc(O)cc4ccccc34)c(CCC#N)cc2c2c1CCCN2C1C2CNC1C2 (single isomer, unassigned) [Example 16b]" recorded_endpoint=IC50 obs_value="0.1 to 1 µM"
compound="CNC(=O)c1cccc(-c2nc3c(F)c(-c4cc(O)cc5ccccc45)c(CCC#N)cc3c3c2NC(=O)CN3C2C3CNC2C3)c1 (single isomer, unassigned)" recorded_endpoint=IC50 obs_value="1 to 5 µM"
compound="C[C@H](Oc1nc2c(F)c(-c3c[nH]c4ccccc34)c(CCC#N)cc2c2c1NC(=O)CN2C1C2CNC1C2)[C@@H]1CCCN1C (single isomer, unassigned)" recorded_endpoint=IC50 obs_value="≤ 0.1 µM"
compound="CC1Cc2c(OC[C@@H]3CCCN3C)nc3c(F)c(-c4cc(O)cc5ccccc45)c(CCC#N)cc3c2N(C2C3CNC2C3)C1 (single isomer, unassigned) [Example 14b]" recorded_endpoint=IC50 obs_value="1 to 5 µM"
compound="N#CCCc1cc2c3c(c(-c4ccc5cccnc5c4)nc2c(F)c1-c1cc(O)cc2ccccc12)NC(=O)CN3C1C2CNC1C2 (single isomer, unassigned)" recorded_endpoint=IC50 obs_value="1 to 5 µM"

Source of measurements: patent US12030883B2
